# test system: HLA-B*08:01
# protocol details: IEDB peptide-MHC binding, purified MHC/direct/fluorescence; filed as Kd, often an IC50 or EC50 that approximates it; bounds were set here for any values at or beyond the usual limits of such assays
# measurement conditions: source organism: Campylobacter jejuni subsp. jejuni 81-176
readout kind: pKd
Scale: pKd equals -log10([C]), with [C] in mol/L.

**Query** Requested read-out: pKd. Entry: YLKPKIWRF
**Result** 8.10

====

# test system: HLA-B*15:01
# protocol details: IEDB peptide-MHC binding, purified MHC/direct/fluorescence; filed as Kd, often an IC50 or EC50 that approximates it; bounds were set here for any values at or beyond the usual limits of such assays
# measurement conditions: source organism: Yersinia enterocolitica subsp. enterocolitica 8081
pKd: −log10 of the molar value.
readout kind: pKd

**Query** Requested read-out: pKd. Entry: LAYLAGWII
**Result** ≤ 4.70

====

# test system: HLA-C*15:02
# protocol details: IEDB peptide-MHC binding, purified MHC/direct/fluorescence; filed as Kd, often an IC50 or EC50 that approximates it; bounds were set here for any values at or beyond the usual limits of such assays
# measurement conditions: source organism: Entamoeba histolytica HM-1:IMSS
readout kind: Kd

**Query** Requested read-out: Kd. Entry: SWLYNYFVF
**Result** ≥ 20 µM

====

# test system: HLA-A*30:02
# protocol details: IEDB peptide-MHC binding, purified MHC/competitive/radioactivity; filed as Kd, often an IC50 or EC50 that approximates it; bounds were set here for any values at or beyond the usual limits of such assays
# measurement conditions: source organism: Mammarenavirus brazilense
Can you tell me pKd for the items I'm about to list?
Scale: pKd equals -log10([C]), with [C] in mol/L.

**Query** Requested read-out: pKd. Entry: KTLHSSVQSY
**Result** 7.13

**Query** Requested read-out: pKd. Entry: TERSASGGVY
**Result** 6.00

====

# test system: HLA-B*40:01
# protocol details: IEDB peptide-MHC binding, purified MHC/competitive/radioactivity; filed as Kd, often an IC50 or EC50 that approximates it; bounds were set here for any values at or beyond the usual limits of such assays
# measurement conditions: source organism: Mammarenavirus juninense
readout kind: Kd (µM)
Please state the figure in µM; there is no need to write the unit.

**Query** Requested read-out: Kd. Entry: LDLVLLNLL
**Result** 18.7

====

Can you tell me IC50 for the items I'm about to list?
# test system: HLA-A*24:02
# protocol details: IEDB peptide-MHC binding, purified MHC/competitive/fluorescence; bounds were set here for any values at or beyond the usual limits of such assays
# measurement conditions: source organism: Sudan ebolavirus
Please state the figure in µM; there is no need to write the unit.

**Query** Requested read-out: IC50. Entry: QLSNTTGRL
**Result** 30.3

**Query** Requested read-out: IC50. Entry: LDRPHTPQF
**Result** 23.8

====

# test system: HLA-A*02:50
# protocol details: IEDB peptide-MHC binding, purified MHC/competitive/fluorescence; filed as Kd, often an IC50 or EC50 that approximates it; bounds were set here for any values at or beyond the usual limits of such assays
# measurement conditions: source organism: Giardia intestinalis ATCC 50581
readout kind: Kd (µM)
Please state the figure in µM; there is no need to write the unit.

**Query** Request body: readout Kd, system HLA-A*02:50, query LLPYPIAGC . Return the value.
**Result** 0.0235

====

# test system: HLA-A*02:12
# protocol details: IEDB peptide-MHC binding, purified MHC/direct/fluorescence; filed as Kd, often an IC50 or EC50 that approximates it; bounds were set here for any values at or beyond the usual limits of such assays
# measurement conditions: source organism: Limestone Canyon virus
readout kind: Kd

**Query** Requested read-out: Kd. Entry: LVTARQKLK
**Result** ≥ 20 µM

====

# test system: HLA-B*18:01
# protocol details: IEDB peptide-MHC binding, purified MHC/competitive/fluorescence; filed as Kd, often an IC50 or EC50 that approximates it; bounds were set here for any values at or beyond the usual limits of such assays
# measurement conditions: source organism: Influenza A virus (A/Gf/HK/SSP607/2003(H9N2))
readout kind: Kd

**Query** Request body: readout Kd, system HLA-B*18:01, query AMITYITRK . Return the value.
**Result** ≥ 20 µM

====

# test system: HLA-B*08:02
# protocol details: IEDB peptide-MHC binding, purified MHC/direct/fluorescence; filed as Kd, often an IC50 or EC50 that approximates it; bounds were set here for any values at or beyond the usual limits of such assays
# measurement conditions: source organism: Dengue virus 2 Thailand/16681/84
readout kind: Kd

**Query** Requested read-out: Kd. Entry: KCRLRMDKL
**Result** ≥ 20 µM

====

# test system: HLA-A*24:02
# protocol details: IEDB peptide-MHC binding, purified MHC/competitive/radioactivity; filed as Kd, often an IC50 or EC50 that approximates it; bounds were set here for any values at or beyond the usual limits of such assays
# measurement conditions: source organism: Mammarenavirus machupoense
readout kind: Kd

**Query** Request body: readout Kd, system HLA-A*24:02, query LCEEGKVCY . Return the value.
**Result** ≥ 77.5 µM

====

# test system: HLA-B*57:01
# protocol details: IEDB peptide-MHC binding, purified MHC/direct/fluorescence; filed as Kd, often an IC50 or EC50 that approximates it; bounds were set here for any values at or beyond the usual limits of such assays
# measurement conditions: source organism: Camelpox virus M-96
pKd: −log10 of the molar value.
readout kind: pKd

**Query** Requested read-out: pKd. Entry: NRLKPRDFK
**Result** ≤ 4.70

**Query** Requested read-out: pKd. Entry: YERGNIIIF
**Result** ≤ 4.70

**Query** Requested read-out: pKd. Entry: FVFEATKLY
**Result** ≤ 4.70

====

# test system: HLA-B*08:01
# protocol details: IEDB peptide-MHC binding, purified MHC/direct/fluorescence; filed as Kd, often an IC50 or EC50 that approximates it; bounds were set here for any values at or beyond the usual limits of such assays
# measurement conditions: source organism: Haemophilus influenzae
readout kind: Kd (µM)
Please state the figure in µM; there is no need to write the unit.

**Query** Requested read-out: Kd. Entry: ETKGKRRLL
**Result** 7.47

====

# test system: HLA-A*03:01
# protocol details: IEDB peptide-MHC binding, purified MHC/direct/fluorescence; filed as Kd, often an IC50 or EC50 that approximates it; bounds were set here for any values at or beyond the usual limits of such assays
# measurement conditions: source organism: Escherichia coli O157:H7
readout kind: Kd

**Query** Request body: readout Kd, system HLA-A*03:01, query EQRLIDICV . Return the value.
**Result** ≥ 20 µM

**Query** Request body: readout Kd, system HLA-A*03:01, query YLFQWNDNV . Return the value.
**Result** ≥ 20 µM

**Query** Request body: readout Kd, system HLA-A*03:01, query GITGGHIPK . Return the value.
**Result** 0.392 µM

====

# test system: HLA-A*69:01
# protocol details: IEDB peptide-MHC binding, purified MHC/direct/fluorescence; filed as Kd, often an IC50 or EC50 that approximates it; bounds were set here for any values at or beyond the usual limits of such assays
# measurement conditions: source organism: Brucella melitensis
readout kind: Kd

**Query** Requested read-out: Kd. Entry: RVISDGYFK
**Result** ≥ 20 µM

**Query** Requested read-out: Kd. Entry: RLWNGRRCR
**Result** ≥ 20 µM

====

# test system: HLA-B*18:01
# protocol details: IEDB peptide-MHC binding, purified MHC/competitive/fluorescence; filed as Kd, often an IC50 or EC50 that approximates it; bounds were set here for any values at or beyond the usual limits of such assays
# measurement conditions: source organism: Human immunodeficiency virus 1
readout kind: Kd (nM)
Please state the figure in nM; there is no need to write the unit.

**Query** Requested read-out: Kd. Entry: KSLFNTVATLY
**Result** 242

====

# test system: HLA-A*69:01
# protocol details: IEDB peptide-MHC binding, purified MHC/direct/fluorescence; filed as Kd, often an IC50 or EC50 that approximates it; bounds were set here for any values at or beyond the usual limits of such assays
# measurement conditions: source organism: Buffalopox virus
readout kind: Kd

**Query** Request body: readout Kd, system HLA-A*69:01, query IHSDQLSKF . Return the value.
**Result** ≥ 20 µM

====

# test system: HLA-B*15:01
# protocol details: IEDB peptide-MHC binding, purified MHC/direct/fluorescence; filed as Kd, often an IC50 or EC50 that approximates it; bounds were set here for any values at or beyond the usual limits of such assays
# measurement conditions: source organism: H9N2 subtype Influenza A virus (A/swine/Korea/S83/2004(H9N2))
readout kind: pKd
Scale: pKd equals -log10([C]), with [C] in mol/L.

**Query** Requested read-out: pKd. Entry: FQKDAKVLF
**Result** 6.94
